Collected Chemical stability (relative purity loss) Buffer pH 7.4 values appear next to each entry.
Test: Chemical stability assessment of peptides (relative purity loss)
Format: physicochemical
Settings: 50 mM phosphate buffer pH 7.4 + acetonitrile (1:1); 24 hours at 37° C.
Starred links: 1 amine or outer side, 2 acyl side, 3 side chain; linkers in the order of their positions; H or OH if unused. Positions of bridges follow the written chain, without caps; N, C: chain ends. Non-standard residues stand in square brackets, D forms with d. Residues, ends and D or L forms follow the SMILES beside them. *: point of attachment. X3 = CN(CCCCC(=O)N[C@@H](CS[*:2])C(=O)[*:1])[*:3]; Trp(7-Me) = Cc1cccc2c(C[C@H](N)C(=O)O)c[nH]c12; 2Nal = N[C@@H](Cc1ccc2ccccc2c1)C(=O)O; AEF = NCCOc1ccc(C[C@H](N)C(=O)O)cc1; αMeL = CC(C)C[C@](C)(N)C(=O)O; Suc = O=C(CCC(=O)[*:2])[*:1]; Me2NCH2CH2 = CN(C)CC*; Aib = CC(C)(N)C(=O)O; Ava = NCCCCC(=O)O; Sar = CNCC(=O)O
property_label: Chemical stability (relative purity loss) Buffer pH 7.4 (%)

compound	data_value
CC(C)C[C@@H](NC(=O)[C@H](CC(N)=O)NC(=O)[C@@H]1CCC(=O)NCCCCC(=O)N[C@H]2CSSC[C@H](NC(=O)[C@H](CCC(N)=O)NC(=O)[C@H](Cc3c[nH]c4ccccc34)NC(=O)[C@H]([C@@H](C)O)NC(=O)[C@H](CC(N)=O)NC2=O)C(=O)N[C@@H](Cc2ccc(OCCN(C)C)cc2)C(=O)N[C@@H](Cc2ccc3ccccc3c2)C(=O)N[C@@](C)(CC(C)C)C(=O)N1)C(N)=O [compound 10] ([Ava]CNTWQCY(Me2NCH2CH2)[2Nal][αMeL]EN[dL]-NH2; disulfide 2-7; lactam N-11)	0.4
CC(=O)N[C@H]1CCCCNC(=O)[C@@H]2CSSC[C@H](NC(=O)[C@H](CCC(N)=O)NC(=O)[C@H](Cc3c[nH]c4ccccc34)NC1=O)C(=O)N[C@@H](Cc1ccc(OCCN)cc1)C(=O)N[C@@H](Cc1ccc3ccccc3c1)C(=O)NC(C)(C)C(=O)N[C@H](C(=O)N[C@@H](C)C(=O)N[C@H](CC(C)C)C(N)=O)CCC(=O)N(C)CCCCC(=O)N2 [compound 19] (Ac-KWQC[AEF][2Nal][Aib]EA[dL]-NH2; linker 1-4-8 via X3)	0.0
CC(=O)NCCCC[C@@H]1NC(=O)[C@H](Cc2c[nH]c3c(C)cccc23)NC(=O)[C@H]([C@@H](C)O)NC(=O)[C@H](CC(N)=O)NC(=O)[C@@H]2CSSC[C@H](NC1=O)C(=O)N[C@@H](Cc1ccc(OCCN(C)C)cc1)C(=O)N[C@@H](Cc1ccc3ccccc3c1)C(=O)N[C@@](C)(CC(C)C)C(=O)N[C@H](C(=O)N[C@@H](CC(N)=O)C(=O)N[C@@H](Cc1c[nH]cn1)C(N)=O)CCCCNC(=O)CCC(=O)N2 [compound 23] (CNT[Trp(7-Me)]K(Ac)CY(Me2NCH2CH2)[2Nal][αMeL]KNH-NH2; disulfide 1-6; linker N-10 via Suc)	0.0
CC(=O)N[C@H]1CCCCNC(=O)[C@@H]2CSSC[C@H](NC(=O)[C@H](CCC(N)=O)NC(=O)[C@H](Cc3c[nH]c4ccccc34)NC1=O)C(=O)N[C@@H](Cc1ccc(OCCN)cc1)C(=O)N[C@@H](Cc1ccc3ccccc3c1)C(=O)NC(C)(C)C(=O)N[C@H](C(=O)N[C@@H](CC(N)=O)C(=O)NCC(N)=O)CCC(=O)N(C)CCCCC(=O)N2 [compound 15] (Ac-KWQC[AEF][2Nal][Aib]ENG-NH2; linker 1-4-8 via X3)	5.1
CC(C)C[C@]1(C)NC(=O)[C@H](Cc2ccc3ccccc3c2)NC(=O)[C@H](Cc2ccc(OCCN(C)C)cc2)NC(=O)[C@@H]2CSSC[C@H](NC(=O)CCCCNC(=O)CC[C@@H](C(=O)N[C@@H](CC(N)=O)C(=O)N[C@@H](CC(N)=O)C(N)=O)NC1=O)C(=O)N[C@@H](CC(N)=O)C(=O)N[C@@H]([C@@H](C)O)C(=O)N[C@@H](Cc1c[nH]c3ccccc13)C(=O)N[C@@H](CCC(N)=O)C(=O)N2 [compound 27] ([Ava]CNTWQCY(Me2NCH2CH2)[2Nal][αMeL]ENN-NH2; disulfide 2-7; lactam N-11)	8.7
COc1ccc(C[C@@H]2NC(=O)[C@@H]3CSSC[C@H](NC(=O)CCCCNC(=O)CC[C@@H](C(=O)N[C@@H](CC(N)=O)C(=O)NCC(N)=O)NC(=O)C(C)(C)NC(=O)[C@H](Cc4ccc5ccccc5c4)NC2=O)C(=O)N[C@@H](CC(N)=O)C(=O)N[C@@H]([C@@H](C)O)C(=O)N[C@@H](Cc2c[nH]c4ccccc24)C(=O)N[C@@H](CCC(N)=O)C(=O)N3)cc1 [compound 4] ([Ava]CNTWQCY(Me)[2Nal][Aib]ENG-NH2; disulfide 2-7; lactam N-11)	7.0
CC(=O)NCCCC[C@@H]1NC(=O)[C@H](Cc2c[nH]c3c(C)cccc23)NC(=O)[C@H]([C@@H](C)O)NC(=O)[C@H](CC(N)=O)NC(=O)[C@@H]2CSSC[C@H](NC1=O)C(=O)N[C@@H](Cc1ccc(OCCN(C)C)cc1)C(=O)N[C@@H](Cc1ccc3ccccc3c1)C(=O)NC(C)(C)C(=O)N[C@H](C(=O)N[C@@H](CC(N)=O)C(=O)N[C@@H](Cc1c[nH]cn1)C(=O)N(C)CC(N)=O)CCC(=O)NCCCCC(=O)N2 [compound 45] ([Ava]CNT[Trp(7-Me)]K(Ac)CY(Me2NCH2CH2)[2Nal][Aib]ENH[Sar]-NH2; disulfide 2-7; lactam N-11)	2.3
CC(=O)N[C@H]1CCCCNC(=O)[C@@H]2CSSC[C@H](NC(=O)[C@H](CCC(N)=O)NC(=O)[C@H](Cc3c[nH]c4ccccc34)NC1=O)C(=O)N[C@@H](Cc1ccc(OCCN)cc1)C(=O)N[C@@H](Cc1ccc3ccccc3c1)C(=O)NC(C)(C)C(=O)N[C@H](C(=O)N[C@@H](CC(N)=O)C(=O)N[C@@H](CC(N)=O)C(N)=O)CCC(=O)N(C)CCCCC(=O)N2 [compound 12] (Ac-KWQC[AEF][2Nal][Aib]ENN-NH2; linker 1-4-8 via X3)	3.6

These entries and their values trace back to patent US20260258084A1.
